Tgt: T1, human TMEM106B (human, UniProt Q9NUM4 2-274)
T1 construct: Full-length, on transiently transfected HEK293 cells, or natively expressed on HeLa, U251 and A549 cells; also called huTMEM106B; huTMEM
Procedure text: FACS A549, 1 ug/ml
Below, each entry is listed alongside its reported MFI.
Measured parameter: MFI

binder="anti-TMEM106B antibody TM-21 (antibody, V domains shown) VH: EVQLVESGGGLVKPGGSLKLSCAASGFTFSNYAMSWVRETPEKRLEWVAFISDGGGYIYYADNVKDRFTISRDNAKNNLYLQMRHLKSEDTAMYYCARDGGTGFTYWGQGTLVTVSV VL: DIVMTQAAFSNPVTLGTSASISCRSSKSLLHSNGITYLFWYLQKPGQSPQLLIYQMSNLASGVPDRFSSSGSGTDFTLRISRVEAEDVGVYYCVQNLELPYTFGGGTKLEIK" measured_parameter=MFI data_value=2030
binder="anti-TMEM106B antibody TM-19 (antibody, V domains shown) VH: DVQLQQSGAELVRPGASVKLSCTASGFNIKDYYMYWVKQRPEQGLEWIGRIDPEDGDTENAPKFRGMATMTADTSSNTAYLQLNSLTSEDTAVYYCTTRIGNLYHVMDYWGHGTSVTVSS VL: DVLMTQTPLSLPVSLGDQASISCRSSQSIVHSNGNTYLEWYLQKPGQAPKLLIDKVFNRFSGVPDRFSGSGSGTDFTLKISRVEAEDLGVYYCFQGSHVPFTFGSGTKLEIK" measured_parameter=MFI data_value=3640
